- Test system: SH-SY5Y
- assay notes: Cytotoxicity against human SH-SY5Y cells at 50 uM after 48 hrs by MTT assay
- Format: functional
Record True whenever Activity is at 70% or higher; record False when lower.

>>> label("O=C(CCCN1CCC(O)(c2ccc(Cl)cc2)CC1)c1ccc(F)cc1 [HALOPERIDOL]")
"False"
>>> label("CC(C)=CCN1CCC2(C)c3cc(O)ccc3CC1C2C (stereo unspecified) [PENTAZOCINE]")
"False"
>>> label("c1ccc(CCN2CCCCC2)cc1")
"False"
>>> label("CCCN(CCC)CCc1ccc(OC)c(OCCc2ccccc2)c1")
"True"
>>> label("Cc1ccccc1NC(=N)Nc1ccccc1C [DITOLYLGUANIDINE]")
"True"
>>> label("Fc1ccc(-n2cc(CCCCN3CCC4(CC3)OCc3ccccc34)c3ccccc32)cc1 [SIRAMESINE]")
"True"

* * *

- target or system: Sigma intracellular receptor 2 (Rattus norvegicus)
- Sequence (Q5U3Y7 whole entry): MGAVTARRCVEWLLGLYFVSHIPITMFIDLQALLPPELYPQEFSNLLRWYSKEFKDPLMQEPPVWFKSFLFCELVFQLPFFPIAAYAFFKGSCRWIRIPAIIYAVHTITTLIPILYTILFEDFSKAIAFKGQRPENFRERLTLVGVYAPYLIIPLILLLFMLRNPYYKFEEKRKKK
- assay notes: Displacement of [3H]-DTG from sigma2 receptor in rat liver membranes after 120 mins by liquid scintillation counting
value type: Ki (nM)

>>> measured_result("CCN(CC1CCN(Cc2ccccc2)CC1)C(C)=O")
422
